From: patent US11964973B2

molecular target: Human DGKα(9-727) (Homo sapiens (Human), UniProt P23743); test: biochemical; details: Table A; liposome (LIPGLO) assay; read-out: DGKα
Sequence (P23743 whole entry, looked up): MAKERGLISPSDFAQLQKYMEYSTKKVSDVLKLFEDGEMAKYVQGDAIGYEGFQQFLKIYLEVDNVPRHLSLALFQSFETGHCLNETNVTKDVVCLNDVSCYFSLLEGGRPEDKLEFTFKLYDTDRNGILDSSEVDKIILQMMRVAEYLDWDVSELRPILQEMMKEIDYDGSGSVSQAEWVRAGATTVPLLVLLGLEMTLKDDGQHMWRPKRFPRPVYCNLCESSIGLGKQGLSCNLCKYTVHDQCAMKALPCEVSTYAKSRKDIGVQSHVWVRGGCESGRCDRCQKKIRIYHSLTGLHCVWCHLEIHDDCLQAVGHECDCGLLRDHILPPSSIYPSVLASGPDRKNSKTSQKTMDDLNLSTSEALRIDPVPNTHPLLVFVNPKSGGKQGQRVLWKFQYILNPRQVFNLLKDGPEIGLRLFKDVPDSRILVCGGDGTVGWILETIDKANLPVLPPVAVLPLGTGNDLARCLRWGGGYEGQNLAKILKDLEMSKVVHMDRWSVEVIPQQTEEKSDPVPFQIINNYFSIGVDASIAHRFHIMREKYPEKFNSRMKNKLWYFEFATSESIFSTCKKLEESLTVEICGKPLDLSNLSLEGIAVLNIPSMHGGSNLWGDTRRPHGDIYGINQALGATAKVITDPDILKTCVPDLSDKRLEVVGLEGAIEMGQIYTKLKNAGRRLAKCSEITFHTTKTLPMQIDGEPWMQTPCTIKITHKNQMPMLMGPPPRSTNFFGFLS
experimental.readout: IC50 (nM)
Use nM as the unit, but write only the number.

Below: 6 compounds and their reported IC50.
Incoming: // returns reported IC50 for input CC1CN(c2cc(=O)n(C)c3ccc(C#N)nc23)CCC1N(C)C(=O)c1ccc(F)cc1 (single isomer, unassigned) [Example 284]
Outgoing: 23000

Incoming: // returns reported IC50 for input Cn1c(=O)nc(N2CC[C@@H](Oc3cccc(C(F)(F)F)c3)[C@H](O)C2)c2nc(Cl)ccc21 (racemic) [Example 272]
Outgoing: 19000

Incoming: // returns reported IC50 for input CO[C@H]1CN(c2cc(=O)n(C)c3ccc(C#N)nc23)CC[C@@H]1Oc1ccc(OC(C)C)cn1 (single isomer, unassigned) [Example 269]
Outgoing: 47

Incoming: // returns reported IC50 for input CC1CN(c2cc(=O)n(C)c3ccc(C#N)nc23)CCC1N(C)C(=O)c1ccc(F)cc1 (single isomer, unassigned) [Example 285]
Outgoing: 30000

Incoming: // returns reported IC50 for input CC(C)Oc1ccc(OC2C[C@@H](C)N(c3nc(=O)n(C)c4ccc(C#N)nc34)C[C@H]2C)nc1 (single isomer, unassigned) [Example 245]
Outgoing: 430

Incoming: // returns reported IC50 for input C[C@H]1CN(c2cc(=O)n(C)c3ccc(C#N)nc23)[C@@H](C)CC1N(C)c1ccc(C(F)(F)F)cc1 (single isomer, unassigned) [Example 319]
Outgoing: 61000

New cases:
Incoming: // returns reported IC50 for input CC(C)Oc1ccc(OC2C[C@H](C)N(c3nc(=O)n(C)c4ccc(C#N)nc34)C[C@@H]2C)nc1 (mixture of isomers)
Outgoing: 69

Incoming: // returns reported IC50 for input CC1CN(c2cc(=O)n(C)c3ccc(C#N)nc23)CCC1N(C)C(=O)c1ccc(F)cc1 (single isomer, unassigned) [Example 286]
Outgoing: 5200
